Molecular target: Na^+, K^+-ATPase (Homo sapiens, UniProt P05023)
Construct: The HEK-293 cell line endogenously expressing Na^+, K^+-ATPase; endogenous in cells; host or cells: HEK-293
Test: cell-based
Details: HEK293, HEK-293; dose 1 uM, Log[drug](M) −6.3
Value Kind: inhibition at 1 µM (%)

[
  {
    "Molecule": "C[C@]12CCC(=NOCCCCN3CCCCC3)C=C1CCC1C2CC[C@]2(C)[C@@H](c3ccc(=O)oc3)CC[C@]12O (stereo partly shown) [BP247]",
    "Scale Unit": "%",
    "Reported Measurement": 68.4
  },
  {
    "Molecule": "C[C@]12CCC(=NOCCCN3CCCCC3)C=C1CCC1C2CC[C@]2(C)[C@@H](c3ccc(=O)oc3)CC[C@]12O (stereo partly shown) [BP246]",
    "Scale Unit": "%",
    "Reported Measurement": 48.5
  },
  {
    "Molecule": "C[C@]12CCC(=NOCCCCCN3CCCCC3)C=C1CCC1C2CC[C@]2(C)[C@@H](c3ccc(=O)oc3)CC[C@]12O (stereo partly shown) [BP248]",
    "Scale Unit": "%",
    "Reported Measurement": 4.5
  },
  {
    "Molecule": "C[C@]12CCC(=NOCCN3CCOCC3)C=C1CCC1C2CC[C@]2(C)[C@@H](c3ccc(=O)oc3)CC[C@]12O (stereo partly shown) [BP245]",
    "Scale Unit": "%",
    "Reported Measurement": 36
  }
]
